# Tested on: Venturia inaequalis
# METHOD SUMMARY: Control test of apple scab disease (sprayed young apple seedlings)
# Assay type: in vivo
# CONDITIONS: 125 ppm by mass spray, 12 to 14 days after inoculation
# Procedure: [formula] […] Then, the drug liquid was sprayed onto young apple seedlings cultivated in a nursery pot (variety “Orin”, three-to four-leaf stage), and then air-dried. […] 12 Days to 14 days after inoculation, leaves of young apple seedlings were visually observed, and the control value was calculated from the lesion area ratio in accordance with the equation used in the control test of cucumber gray mold.
PROPERTY: pest or weed control at 125 ppm

{"COMPOUND": "COC(=O)N(Cc1cccc(C)c1)NC(=O)c1cc(C)nnc1Oc1cccc(C2CC2)c1F [b-159]", "MEASURED TARGET": "Venturia inaequalis", "PROPERTY": "pest or weed control at 125 ppm", "VALUE REPORTED": "≥ 75%"}
{"COMPOUND": "COC(=O)N(Cc1ccccc1)NC(=O)c1cc(C)nnc1Oc1cccc(C2CC2)c1F [b-102]", "MEASURED TARGET": "Venturia inaequalis", "PROPERTY": "pest or weed control at 125 ppm", "VALUE REPORTED": "≥ 75%"}
{"COMPOUND": "COC(=O)N(Cc1ccc(Cl)cc1Cl)NC(=O)c1cc(C)nnc1Oc1cccc(C2CC2)c1F [b-57]", "MEASURED TARGET": "Venturia inaequalis", "PROPERTY": "pest or weed control at 125 ppm", "VALUE REPORTED": "≥ 75%"}
{"COMPOUND": "COC(=O)N(Cc1ccccc1C)NC(=O)c1cc(C)nnc1Oc1cccc(C2CC2)c1F [b-103]", "MEASURED TARGET": "Venturia inaequalis", "PROPERTY": "pest or weed control at 125 ppm", "VALUE REPORTED": "≥ 75%"}
{"COMPOUND": "COC(=O)N(Cc1ccc(C)cc1Cl)NC(=O)c1c(C)cncc1Oc1cccc(C2CC2)c1 [b-178]", "MEASURED TARGET": "Venturia inaequalis", "PROPERTY": "pest or weed control at 125 ppm", "VALUE REPORTED": "≥ 75%"}
{"COMPOUND": "COC(=O)N(Cc1ccc(OC)cc1OC)NC(=O)c1cc(C)ncc1Oc1cccc(C2CC2)c1F [b-85]", "MEASURED TARGET": "Venturia inaequalis", "PROPERTY": "pest or weed control at 125 ppm", "VALUE REPORTED": "≥ 75%"}
{"COMPOUND": "COC(=O)N(Cc1ccc(OC)cc1C)NC(=O)c1c(C)cnnc1Oc1cccc(C2CC2)c1F [b-192]", "MEASURED TARGET": "Venturia inaequalis", "PROPERTY": "pest or weed control at 125 ppm", "VALUE REPORTED": "≥ 75%"}
{"COMPOUND": "COC(=O)N(Cc1ccc(C)cc1C)NC(=O)c1c(C)cnnc1Oc1cccc(Cl)c1F [b-191]", "MEASURED TARGET": "Venturia inaequalis", "PROPERTY": "pest or weed control at 125 ppm", "VALUE REPORTED": "≥ 75%"}
{"COMPOUND": "COC(=O)N(Cc1ccc(C)cc1C)NC(=O)c1cc(Cl)nnc1Oc1cccc(Cl)c1F [b-169]", "MEASURED TARGET": "Venturia inaequalis", "PROPERTY": "pest or weed control at 125 ppm", "VALUE REPORTED": "≥ 75%"}
{"COMPOUND": "COC(=O)N(Cc1ccc(C)cc1C)NC(=O)c1cc(Br)ncc1Oc1cccc(C2CC2)c1F [b-67]", "MEASURED TARGET": "Venturia inaequalis", "PROPERTY": "pest or weed control at 125 ppm", "VALUE REPORTED": "≥ 75%"}
{"COMPOUND": "COC(=O)N(Cc1ccc(OC)cc1C)NC(=O)c1ccncc1Oc1cccc(Br)c1 [b-146]", "MEASURED TARGET": "Venturia inaequalis", "PROPERTY": "pest or weed control at 125 ppm", "VALUE REPORTED": "≥ 75%"}
{"COMPOUND": "COC(=O)N(Cc1ccc2ncsc2c1)NC(=O)c1cc(C)nnc1Oc1cccc(C2CC2)c1F [b-173]", "MEASURED TARGET": "Venturia inaequalis", "PROPERTY": "pest or weed control at 125 ppm", "VALUE REPORTED": "≥ 75%"}
{"COMPOUND": "COC(=O)N(Cc1ccc(C)cc1C)NC(=O)c1cc(C)nnc1Oc1cccc(Cl)c1Br [b-35]", "MEASURED TARGET": "Venturia inaequalis", "PROPERTY": "pest or weed control at 125 ppm", "VALUE REPORTED": "≥ 75%"}
{"COMPOUND": "Cc1ccc(CN(NC(=O)c2cc(C)nnc2Oc2cccc(C3CC3)c2F)C(=O)C2CC2)c(C)c1 [b-25]", "MEASURED TARGET": "Venturia inaequalis", "PROPERTY": "pest or weed control at 125 ppm", "VALUE REPORTED": "≥ 75%"}
{"COMPOUND": "COC(=O)N(Cc1ccc(C)cc1C)NC(=O)c1cc(C)nnc1Oc1cc(C)cc(F)c1 [b-144]", "MEASURED TARGET": "Venturia inaequalis", "PROPERTY": "pest or weed control at 125 ppm", "VALUE REPORTED": "≥ 75%"}
{"COMPOUND": "COC(=O)N(Cc1ccc(C)cc1Cl)NC(=O)c1c(C)cnnc1Oc1cccc(C2CC2)c1F [b-177]", "MEASURED TARGET": "Venturia inaequalis", "PROPERTY": "pest or weed control at 125 ppm", "VALUE REPORTED": "≥ 75%"}
{"COMPOUND": "COC(=O)N(Cc1ccc(C)cc1C)NC(=O)c1ccncc1Oc1cccc(C2CC2)c1F [b-150]", "MEASURED TARGET": "Venturia inaequalis", "PROPERTY": "pest or weed control at 125 ppm", "VALUE REPORTED": "≥ 75%"}
